The compounds below have reported IC50 for ACAT enzyme (rabbit intestinal mucosa microsome) (Oryctolagus cuniculus, UniProt G1SFD9).
Experimental readout: IC50 (nM)

# annotated cases, reported IC50 shown
1) CCCCCCCCCCC1(C(=O)Nc2c(C)ccc3c2OCCC3=O)CCCC1 [Ex. 20]: 170
2) CCCCCCCCCCC1(C(=O)Nc2c(OC)ccc3c(=O)ccoc23)CCCC1 [Ex. 50]: 270
3) COc1ccc2c(c1NC(=O)C(C)(C)CCCCCCc1ccccc1)OCCC2=O [Ex. 38]: 44
4) CCCCCCCCCCC(C)(C)C(=O)Nc1c(C)ccc2c1OCCC2=O [Ex. 19]: 210
5) Cc1cc(C)c2c(c1NC(=O)C(C)(C)CCCCCOc1ccc(Cl)cc1)OCCC2=O [Ex. 44]: 400
6) Cc1ccc2c(c1NC(=O)C(C)(C)CCCCOCCCC(C)C)OCCC2=O [Ex. 26]: 340
7) COc1ccc2c(c1NC(=O)C(C)(C)CCCCCOc1ccc(Cl)cc1)OCCC2=O [Ex. 41]: 52
8) Cc1ccc2c(c1NC(=O)C(C)(C)CCCCCOc1ccc(Cl)cc1)OCCC2=O [Ex. 32]: 470
9) Cc1ccc2c(c1NC(=O)C(C)(C)CCCCCc1ccccc1)OCCC2=O [Ex. 25]: 250
10) Cc1ccc2c(c1NC(=O)C(C)(C)CCCCOc1ccc(Cl)cc1)OCCC2=O [Ex. 31]: 510

1 = Cc1ccc2c(c1NC(=O)NCC1(c3ccccc3)CCCC1)OCCC2=O [Ex. 6]
2 = CCCCCCCCCCC1(C(=O)Nc2ccc(OC)c3c2OCCC3(C)C)CCCC1 [Ex. 13]
3 = COc1ccc2c(c1NC(=O)C(C)(C)CCCCCCOc1ccc(Cl)cc1)OCCC2=O [Ex. 42]
Task: Given 3 compounds, produce a descending ranking by IC50. Answer format: list of labels, ordered as asked.
Output: 2, 1, 3
(2: 1200 nM, 1: 530 nM, 3: 64 nM)
